tested on: BJ-TERT/LT/RAS^V12 cells; assay: Calcein AM viability assay, dilution-series retest; format: cell-based; conditions: Homo sapiens, 48 h, read-out: IC50, BJ-TERT/LT/Ras^V12

| molecular.string | IC50 [µg/mL] |
| --- | --- |
| COc1ccc(C[C@H]2C(=O)N[C@@H](C)C(=O)N(C)[C@@H]3C(=O)N(C)[C@@H](Cc4ccc(O)c(c4)Oc4ccc(cc4)[C@@H]3O)C(=O)N[C@H](C)C(=O)N[C@@H](C)C(=O)N2C)cc1 | 0.078 |
| COc1cccc2c1C(=O)c1c(O)c3c(c(O)c1C2=O)C[C@@](O)(C(C)=O)C[C@@H]3O[C@H]1C[C@H](N)[C@H](O)[C@H](C)O1 | 1.25 |
| CS[C@H]1SC[C@H]2C(=O)N(C)[C@@H](C(C)C)C(=O)OC[C@@H](NC(=O)c3cnc4ccccc4n3)C(=O)N[C@@H](C)C(=O)N(C)[C@@H]1C(=O)N(C)[C@@H](C(C)C)C(=O)OC[C@@H](NC(=O)c1cnc3ccccc3n1)C(=O)N[C@@H](C)C(=O)N2C | 0.0048 |
| NC(=O)c1cn([C@@H]2O[C@H](CO)[C@@H](O)[C@H]2O)c2ncnc(N)c12 | 0.078 |

====

test system: BJ-TERT/LT/RAS^V12 cells; assay: Calcein AM viability assay, dilution-series retest; assay type: cell-based; settings: Homo sapiens, 48 h; BJ-TERT/LT/Ras^V12 cells; 16-point two-fold dilution; two days; read-out: IC50, BJ-TERT/LT/Ras^V12

| compound | prefix.operator | IC50 (µg/mL) |
| --- | --- | --- |
| O=C1c2c(O)ccc(O)c2C(=O)c2c(NCCNCCO)ccc(NCCNCCO)c21 [Mitoxantrone] | = | 1.25 |
| CC[C@@]1(O)C(=O)OCc2c1cc1n(c2=O)Cc2cc3ccccc3nc2-1 [Camptothecin] | = | 1.25 |
| COc1cccc2c1C(=O)c1c(O)c3c(c(O)c1C2=O)C[C@@](O)(C(=O)CO)C[C@@H]3O[C@H]1C[C@H](N)[C@H](O)[C@H](C)O1 [Doxorubicin] | = | 1.25 |
| CCOc1ccccc1-n1c(C(C)N2CCN(C(=O)COc3ccc(Cl)cc3)CC2)nc2ccccc2c1=O (stereo not shown) [Erastin] | > | 5 |

====

test system: BJ primary cells; test: Calcein AM viability assay, dilution-series retest; type: cell-based, human; settings: Homo sapiens, 48 h; BJ cells; 16-point two-fold dilution; two days; read-out: concentration required to achieve 50% inhibition of calcein AM staining (IC50), BJ

| compound | subject.of.test | IC50 |
| --- | --- | --- |
| CC[C@@]1(O)C(=O)OCc2c1cc1n(c2=O)Cc2cc3ccccc3nc2-1 | BJ primary cells | > 5 mg/L |
| O=C1c2c(O)ccc(O)c2C(=O)c2c(NCCNCCO)ccc(NCCNCCO)c21 | BJ primary cells | 5 mg/L |
| COc1cccc2c1C(=O)c1c(O)c3c(c(O)c1C2=O)C[C@@](O)(C(=O)CO)C[C@@H]3O[C@H]1C[C@H](N)[C@H](O)[C@H](C)O1 | BJ primary cells | > 5 mg/L |
| CCOc1ccccc1-n1c(C(C)N2CCN(C(=O)COc3ccc(Cl)cc3)CC2)nc2ccccc2c1=O (stereo not shown) | BJ primary cells | > 5 mg/L |

====

system: BJ-TERT/p53DD/CDK4^R24C/D1/ST/RAS^V12 cells; assay: Calcein AM viability assay, dilution-series retest; type: cell-based; conditions: Homo sapiens, 48 h, read-out: IC50, BJ-TERT/p53DD/CDK4^R24C/cyclineD1/ST/Ras^V12
quantity.name: IC50 (µg/mL)

| molecular.string | quantity.name | obs.value |
| --- | --- | --- |
| CS[C@H]1SC[C@H]2C(=O)N(C)[C@@H](C(C)C)C(=O)OC[C@@H](NC(=O)c3cnc4ccccc4n3)C(=O)N[C@@H](C)C(=O)N(C)[C@@H]1C(=O)N(C)[C@@H](C(C)C)C(=O)OC[C@@H](NC(=O)c1cnc3ccccc3n1)C(=O)N[C@@H](C)C(=O)N2C | IC50 | 0.078 |
| COc1cccc2c1C(=O)c1c(O)c3c(c(O)c1C2=O)C[C@@](O)(C(C)=O)C[C@@H]3O[C@H]1C[C@H](N)[C@H](O)[C@H](C)O1 | IC50 | 0.625 |
| NC(=O)c1cn([C@@H]2O[C@H](CO)[C@@H](O)[C@H]2O)c2ncnc(N)c12 | IC50 | 0.078 |
| COc1ccc(C[C@H]2C(=O)N[C@@H](C)C(=O)N(C)[C@@H]3C(=O)N(C)[C@@H](Cc4ccc(O)c(c4)Oc4ccc(cc4)[C@@H]3O)C(=O)N[C@H](C)C(=O)N[C@@H](C)C(=O)N2C)cc1 | IC50 | 0.156 |
